PROTOCOL TEXT: Mouse single dose pharmacokinetics
Assay type: in vivo, C57BL/6 mice
APPLIED CONDITIONS: male, C57BL/6, plasma, 0.5 mg/kg, IV
// boundary case: clearance equal to 30 mL/min/kg maps to Not fulfilled; strictly smaller maps to Fulfilled

Quick check: clearance of C[C@H]1CC[C@H](N2CC(=O)N(Cc3ccc(Cl)cc3)C3(CN(C(N)=O)C3)C2=O)CC1 under 30 mL/min/kg?
Fulfilled

I wonder whether Cc1cc(CN2C(=O)CN([C@H]3CC[C@H](C)CC3)C(=O)C23CN(C(N)=O)C3)ccc1F has clearance below 30 mL/min/kg. Can you tell?
Fulfilled

Could you please tell me whether clearance recorded for C[C@H]1CC[C@H](N2CC(=O)N(Cc3ccc(F)c(F)c3)C3(CN(C(N)=O)C3)C2=O)CC1 is less than 30 mL/min/kg?
Fulfilled

Here's an entry: CC(C)N1CC(=O)N(Cc2ccc(C(F)(F)F)cc2)C2(CN(c3cccnn3)C2)C1=O . Is its clearance below 30 mL/min/kg?
Not fulfilled

Please state whether clearance is below 30 mL/min/kg for C[C@H]1CC[C@H](N2CC(=O)N(Cc3ccc(F)c(Cl)c3)C3(CN(C(N)=O)C3)C2=O)CC1
Fulfilled

Dear colleague, could you confirm whether clearance of CC(C)N1CC(=O)N(Cc2ccc(Cl)c(F)c2)C2(CN(c3cccnn3)C2)C1=O falls below 30 mL/min/kg? Thanks.
Not fulfilled
